- assay system: UniProt P41594
- Sequence (P41594 whole entry): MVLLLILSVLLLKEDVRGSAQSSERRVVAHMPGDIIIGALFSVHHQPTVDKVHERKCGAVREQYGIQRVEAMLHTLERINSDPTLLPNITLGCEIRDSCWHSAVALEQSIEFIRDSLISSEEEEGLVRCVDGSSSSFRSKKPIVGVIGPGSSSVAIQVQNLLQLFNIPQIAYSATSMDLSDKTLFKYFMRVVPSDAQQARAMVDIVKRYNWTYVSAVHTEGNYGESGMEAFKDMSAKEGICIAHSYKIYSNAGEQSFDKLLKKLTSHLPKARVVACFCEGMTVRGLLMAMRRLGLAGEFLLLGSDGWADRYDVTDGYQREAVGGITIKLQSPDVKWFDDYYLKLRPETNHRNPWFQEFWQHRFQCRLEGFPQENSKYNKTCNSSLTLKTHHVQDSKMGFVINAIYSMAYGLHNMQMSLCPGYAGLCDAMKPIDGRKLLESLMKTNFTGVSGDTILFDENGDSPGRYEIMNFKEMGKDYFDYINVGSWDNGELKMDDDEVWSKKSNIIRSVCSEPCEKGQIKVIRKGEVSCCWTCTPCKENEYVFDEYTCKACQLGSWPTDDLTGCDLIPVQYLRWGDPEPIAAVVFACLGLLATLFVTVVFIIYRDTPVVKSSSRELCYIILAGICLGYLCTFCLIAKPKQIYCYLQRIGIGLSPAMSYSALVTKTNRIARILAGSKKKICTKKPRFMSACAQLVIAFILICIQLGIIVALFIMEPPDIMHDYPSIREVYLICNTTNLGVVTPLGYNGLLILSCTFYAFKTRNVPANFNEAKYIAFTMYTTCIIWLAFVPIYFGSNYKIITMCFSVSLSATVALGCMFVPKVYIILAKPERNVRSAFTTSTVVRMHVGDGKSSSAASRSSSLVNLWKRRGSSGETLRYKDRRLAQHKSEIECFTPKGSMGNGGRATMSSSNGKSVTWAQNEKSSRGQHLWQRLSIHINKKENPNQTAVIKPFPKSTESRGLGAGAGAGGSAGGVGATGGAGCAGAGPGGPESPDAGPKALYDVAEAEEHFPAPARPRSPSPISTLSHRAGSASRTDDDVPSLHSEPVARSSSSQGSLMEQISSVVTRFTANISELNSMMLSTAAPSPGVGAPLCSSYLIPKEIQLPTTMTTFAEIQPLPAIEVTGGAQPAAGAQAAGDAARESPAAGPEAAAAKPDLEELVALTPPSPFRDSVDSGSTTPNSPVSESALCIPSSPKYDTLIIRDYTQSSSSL
- measurement protocol: Antagonist activity at human mGluR5
metric: pIC50
The value called pIC50 is obtained by taking minus log10 of the concentration in mol/L.

Request: Test system UniProt P41594; read-out pIC50; what value for "Cc1c(-c2ccc(Cl)c(Cl)c2)nsc1NC(=O)[C@@H]1C[C@H]1C" ?
Response: 5.18

Request: What would you report for "COc1ccc(-c2nsc(NC(=O)[C@@H]3C[C@H]3C)c2C)cc1" ?
Response: 6.80

Request: And for "CCOc1ccc(-c2nsc(NC(=O)[C@@H]3C[C@H]3C)c2C)cc1" ?
Response: 7.72

Request: Again, but for "Cc1c(-c2ccc(Cl)cc2)nsc1NC(=O)[C@@H]1C[C@H]1C"
Response: 5.91

Request: Please give the result for "Cc1c(-c2ccc(Br)cc2)nsc1NC(=O)[C@@H]1C[C@H]1C" too.
Response: 6.14

Request: Moving on to "COc1ccc(-c2nsc(NC(=O)[C@@H]3C[C@H]3C)c2C)cc1F"
Response: 6.80

###

- measurement protocol: Elimination half life in Sprague-Dawley rat at 3 mg/kg, iv
- Type: ADME, organism-based
- Parameters: dose 3 mg/kg, route intravenous
- recorded conditions: in vivo, read-out: beta t1/2 (converted)
metric: half-life (min)
Give the quantity in min, number only.

Request: Return reported half-life; argument: "COc1ccc(-c2nsc(NC(=O)[C@@H]3C[C@H]3C)c2C)cc1"
Response: 24.6
